Sourced from paper PMC7842926

System: amastigotes of T. cruzi (Dm28c)
assay procedure: Antiproliferative assay on intracellular amastigotes in Vero host cells
Type: cell-based, Trypanosoma cruzi
conditions used: Trypanosoma cruzi, Vero; 24 hours of treatment; confidence interval in brackets; read-out: Amastigotes (Dm28c) IC50 (CI)
parameter: IC50 (µM)
Answer with a number only, understood to be in µM.

molecule: O=C(Cn1ccnc1[N+](=O)[O-])NCc1ccccc1 [Benznidazole, benznidazole, reference compound]
IC50 / µM: 6.57
//
molecule: C=C1OC(=O)/C(=C/CCCCCCCCCCCCC)[C@@H]1O
IC50 / µM: 23

We next turn to a different molecule, shown below.
I am curious: what IC50 value has been reported for CCCCCCCCCCCCC/C=C1\CC(CO)OC1=O (stereo not drawn) [Majoranolide, majoranolide] ?
21.9
